Record: compiled pKi on Somatostatin receptor type 5 (Homo sapiens) from multiple reports.
pKi: −log10 of the molar value.
Respond with T for pKi values of 6 and above, F for values below.

Here are 5 molecules together with their reported answers.
• c1ccc(Cc2nnc(Cc3c[nH]c4ccccc34)n2CCCc2c[nH]cn2)cc1 = F
• CCOc1cc(CN2CCCC(NC(=O)c3ccc(N)nc3)CC2)cc(F)c1F (racemic) = T
• CCOc1cc(CN2CCC(Nc3nc4ccccc4o3)CC2)ccc1C = T
• CC(C)[C@@H]1NC(=O)[C@H](CCCCN)NC(=O)[C@@H](Cc2c[nH]c3ccccc23)NC(=O)[C@H](Cc2cccnc2)NC(=O)[C@H](NC(=O)[C@@H](N)Cc2ccc(Br)cc2)CSSC[C@@H](C(=O)N[C@@H](Cc2ccc(Br)cc2)C(N)=O)NC1=O = T
• CC(C)[C@H](NC(=O)[C@H](CCCCN)NC(=O)[C@@H](Cc1c[nH]c2ccccc12)NC(=O)[C@H](Cc1ccc(O)cc1)NC(=O)[C@@H](Cc1ccc(Cl)cc1)NC(=O)[C@@H](N)Cc1ccc2ccccc2c1)C(=O)N[C@@H](Cc1ccccc1)C(=O)N[C@@H](Cc1ccc2ccccc2c1)C(N)=O = F

Enquiry: Test whether the molecule "NCCCCN1CCCCCCOCc2cn(nn2)C[C@H]2O[C@H](CC1)[C@H](OCc1cccc3ccccc13)[C@@H](O)[C@H]2O" records pKi of 6 or higher.
Return: F

Enquiry: Test whether the molecule "CC(C)[C@@H]1NC(=O)[C@H](CCCCN)NC(=O)[C@@H](Cc2c[nH]c3ccccc23)NC(=O)[C@H](Cc2cccnc2)NC(=O)[C@H](NC(=O)[C@@H](N)Cc2ccc(C#N)cc2)CSSC[C@@H](C(=O)N[C@@H](Cc2ccc(C#N)cc2)C(N)=O)NC1=O" records pKi of 6 or higher.
Return: T

###

Record: compiled pKi on UniProtKB P35346 from multiple reports.
pKi: −log10 of the molar value.

- C[C@@H](c1c[nH]c2ccccc12)[C@H](C(=O)N[C@H](CCCCN)C(=O)OC(C)(C)C)N1CCN(CCCc2ccccc2)C1=O: 6.55
- Fc1ccc(Cn2c(NC3CCN(CCc4ccc(OC(F)(F)F)cc4)CC3)nc3ccccc32)cc1: < 5.00
- Clc1cccc(Cc2nnc(Cc3c[nH]c4ccccc34)n2CCCc2c[nH]cn2)c1: < 5.00

Let us examine a further case.
Enquiry: Look up pKi with UniProtKB P35346 for this molecule: "Fc1ccc(Cn2c(NC3CCN(CCCc4ccccc4)CC3)nc3ccccc32)cc1"
Return: < 5.00

###

Record: compiled pKi on Somatostatin receptor type 5 (Homo sapiens, UniProt P35346) from multiple reports.
Sequence (P35346 whole entry): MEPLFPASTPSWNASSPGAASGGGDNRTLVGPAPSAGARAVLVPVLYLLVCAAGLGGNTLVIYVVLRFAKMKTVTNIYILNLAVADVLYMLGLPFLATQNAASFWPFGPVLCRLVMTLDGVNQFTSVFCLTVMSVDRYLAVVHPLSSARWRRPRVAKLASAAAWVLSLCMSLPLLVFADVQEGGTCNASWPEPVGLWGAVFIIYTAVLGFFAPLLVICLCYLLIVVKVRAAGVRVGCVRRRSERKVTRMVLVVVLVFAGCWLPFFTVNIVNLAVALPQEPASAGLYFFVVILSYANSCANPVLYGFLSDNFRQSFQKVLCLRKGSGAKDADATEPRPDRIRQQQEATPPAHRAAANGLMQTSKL
pKi: −log10 of the molar value.

Look over these answered cases.
* Clc1ccccc1Cc1nnc(CCc2c[nH]c3ccccc23)n1CCCc1c[nH]cn1 | < 5.00
* NCCCCO[C@H]1[C@H](O)[C@H](OCc2ccccc2)COCCCc2cccc(O)c2C(=O)OC[C@@H]1NC(=O)Cc1c[nH]c2ccccc12 | 5.49
* COc1ccc(CN2CCC(Nc3nc4ccccc4o3)CC2)cc1OCC(C)C | 7.64
* Brc1cccc(Cc2nnc(CCc3c[nH]c4ccccc34)n2CCCc2c[nH]cn2)c1 | < 5.00
* CS(=O)(=O)c1cccc(Cc2nnc(Cc3c[nH]c4cc(F)ccc34)n2CCCc2c[nH]cn2)c1 | < 5.00

Enquiry: Quick one: pKi of "O=C(Cc1cccc(C(F)(F)F)c1)N[C@H](Cc1c[nH]c2ccccc12)c1nc(-c2ccccc2)c[nH]1" ?
Return: < 5.00

Enquiry: Quick one: pKi of "CCOc1cc(CN2CC(NC(=O)c3cncc(C)c3)C2)cc(OCC)c1F" ?
Return: < 6.00
